- method: RP-HPLC retention on XTerra RP18, methanol/buffer; extrapolated retention factor log kw and slope S
- Assay type: physicochemical
- condition_set: pH 4.4; slope of log k vs methanol volume fraction
Where a name gives a salt, the structure may show the parent alone.
// reported S (slope) for each item listed
Keep the answer to the number alone.

Q: Reported S (slope), molecule c1ccc2c(c1)CCCC2C1=NCCN1 (stereo not drawn) [Tetrahydrozoline, tetrahydrozoline hydrochloride] : ____
Result: -2.94

Q: Reported S (slope), molecule Nc1nc(N)c2nc(-c3ccccc3)c(N)nc2n1 : ____
Result: -3.96

Q: Reported S (slope), molecule CCC1(C2=NCCN2)Cc2ccccc2O1 (stereo not drawn) [Efaroxan, efaroxan hydrochloride] : ____
Result: -3.20

Q: Reported S (slope), molecule COc1ccc2c(c1)[nH]c1c(C)nccc12 [Harmine, harmine hydrochloride] : ____
Result: -4.28

Q: Reported S (slope), molecule CCOc1ccccc1OCCN[C@H](C)Cc1ccc(OC)c(S(N)(=O)=O)c1 [Tamsulosin, tamsulosin hydrochloride] : ____
Result: -4.73

Q: Reported S (slope), molecule Clc1cccc(Cl)c1N=C1NCCN1 [Clonidine, Clonidine hydrochloride] : ____
Result: -2.74

* * *

- method: Capillary electrophoresis, effective electrophoretic mobility (acetone as EOF marker)
- Type: physicochemical
- condition_set: pH 4.4; I = 25 mmol/L, 11 kV, 25 °C, three replicates
Counter-ions that a name gives are not always drawn.
measured_property: µeff4.4

>>> value_observed("N=C(N)NC(=O)Cc1c(Cl)cccc1Cl [Guanfacine, guanfacine hydrochloride]")
"24.242± 0.002 10^-5 cm^2 V^-1 s^-1"

Q: Reported µeff4.4, compound N=C(N)NC(=O)c1nc(Cl)c(N)nc1N [Amiloride, Amiloride hydrochloride] : ____
Result: 25.939 ± 0.080 10^-5 cm^2 V^-1 s^-1

Q: Reported µeff4.4, compound CN1CCN(C2=Nc3cc(Cl)ccc3Nc3ccccc32)CC1 [Clozapine, clozapine] : ____
Result: 22.697 ± 0.017 10^-5 cm^2 V^-1 s^-1

* * *

- method: RP-HPLC retention on XTerra RP18, methanol/buffer; extrapolated retention factor log kw and slope S
- Format: physicochemical
- condition_set: pH 4.4; slope of log k vs methanol volume fraction
Structures can show the parent of a compound that is named as a salt.
measured_property: S (slope)
Keep the answer to the number alone.

Previously resolved entries follow.
>>> value_observed("COc1cc2nc(N3CCN(C(=O)C4COc5ccccc5O4)CC3)nc(N)c2cc1OC (stereo not drawn) [Doxazosin, doxazosin mesilat]")
-5.56
>>> value_observed("Cc1cc(C(C)(C)C)c(O)c(C)c1CC1=NCCN1 [Oxymetazoline, oxymetazoline hydrochloride]")
-3.89

// switching to the query molecule
Q: Reported S (slope), molecule C1COC(NC(C2CC2)C2CC2)=N1 [Rilmenidine, rilmenidine hemifumarate] : ____
Result: -2.88

* * *

- method: RP-HPLC retention on XTerra RP18, methanol/buffer; extrapolated retention factor log kw and slope S
- Format: physicochemical
- condition_set: pH 9.1; slope of log k vs methanol volume fraction
Counter-ions that a name gives are not always drawn.
measured_property: S (slope)
Keep the answer to the number alone.

Q: Reported S (slope), compound CN[C@@H](C)[C@@H](O)c1ccccc1 [Pseudoephedrine, pseudoephedrine hydrochloride] : ____
Result: -2.72

Q: Reported S (slope), compound C1COC(NC(C2CC2)C2CC2)=N1 [Rilmenidine, rilmenidine hemifumarate] : ____
Result: -2.96

Q: Reported S (slope), compound COc1ccccc1OCCNCC(O)COc1cccc2[nH]c3ccccc3c12 (stereo not drawn) [Carvedilol, carvedilol] : ____
Result: -5.56
